- TEST_PROTOCOL: Plasma protein binding in Sprague-Dawley rat plasma at 1 mg/kg, iv measured up to 8 hrs by LC-MS/MS analysis
- Assay type: ADME, organism-based
- ASSAY_SETUP: read-out: PPB (converted)
METRIC_NAME: fraction unbound at 8 h

{"columns": ["MOLECULAR_STRING", "fraction unbound at 8 h"],
 "data": [
  ["C[C@@H](C1CC1)N1Cc2cc(-c3ccn4nc(N)c(C(=O)N[C@H]5CC[C@@](C)(O)CC5)c4n3)cc(OC(F)F)c2C1=O", 0.021]
]}

Next up:
Given "C[C@@H](C1CC1)N1Cc2cc(-c3ccn4nc(N)c(C(=O)N[C@H]5CC[C@@](C)(O)CC5)c4n3)cc(OC(F)(F)F)c2C1=O" , respond with its fraction unbound at 8 h. 0.023

----------
- TARGET_OF_ASSAY: Phosphatidylinositol 4,5-bisphosphate 3-kinase catalytic subunit gamma isoform (Homo sapiens, UniProt P48736)
- Sequence (P48736 whole entry, canonical isoform): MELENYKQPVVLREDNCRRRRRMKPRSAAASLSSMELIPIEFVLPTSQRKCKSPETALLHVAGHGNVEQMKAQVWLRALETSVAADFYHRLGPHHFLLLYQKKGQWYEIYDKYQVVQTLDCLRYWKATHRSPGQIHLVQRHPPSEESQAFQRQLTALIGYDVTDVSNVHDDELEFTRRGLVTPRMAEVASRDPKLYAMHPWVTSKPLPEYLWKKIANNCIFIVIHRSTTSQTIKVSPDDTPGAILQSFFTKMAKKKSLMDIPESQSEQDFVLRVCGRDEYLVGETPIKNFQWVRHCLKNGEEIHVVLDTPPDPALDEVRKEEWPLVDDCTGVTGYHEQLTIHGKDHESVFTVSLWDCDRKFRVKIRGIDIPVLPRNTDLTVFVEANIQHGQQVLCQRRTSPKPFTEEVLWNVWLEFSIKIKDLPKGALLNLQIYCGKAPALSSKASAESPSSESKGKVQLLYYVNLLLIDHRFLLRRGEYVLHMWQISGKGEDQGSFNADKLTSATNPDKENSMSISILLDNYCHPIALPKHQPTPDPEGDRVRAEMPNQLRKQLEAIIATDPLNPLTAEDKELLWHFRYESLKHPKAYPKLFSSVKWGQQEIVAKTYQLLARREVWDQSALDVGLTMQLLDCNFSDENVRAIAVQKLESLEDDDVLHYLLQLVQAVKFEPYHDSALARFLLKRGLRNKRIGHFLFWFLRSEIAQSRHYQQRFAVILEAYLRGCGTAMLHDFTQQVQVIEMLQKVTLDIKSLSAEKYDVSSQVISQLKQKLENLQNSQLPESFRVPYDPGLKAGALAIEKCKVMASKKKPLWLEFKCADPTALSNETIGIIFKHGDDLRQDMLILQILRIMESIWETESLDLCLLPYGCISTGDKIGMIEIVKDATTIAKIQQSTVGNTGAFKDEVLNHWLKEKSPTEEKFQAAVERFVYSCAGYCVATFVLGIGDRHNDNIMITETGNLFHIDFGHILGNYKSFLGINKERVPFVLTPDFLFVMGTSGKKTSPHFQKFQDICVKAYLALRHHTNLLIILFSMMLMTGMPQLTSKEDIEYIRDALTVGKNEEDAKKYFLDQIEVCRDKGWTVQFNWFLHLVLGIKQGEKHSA
- TEST_PROTOCOL: Inhibition of PI3Kgamma (unknown origin) using PIP2 as substrate preincubated for 1 hr followed by substrate addition and measured after 60 mins in presence of ATP by ADP-glo assay
Items are presented alongside their recorded pIC50.
Reminder that pIC50 is minus the log10 of a molar concentration.

{"columns": ["MOLECULAR_STRING", "READOUT_NUMBER"],
 "data": [
  ["CC(C)[C@H](N1Cc2cc(-c3ccn4nc(N)c(C(=O)NC5CC5)c4n3)cc(NS(C)(=O)=O)c2C1=O)C(F)(F)F", 8.07]
]}

Given "Cc1cc(-c2ccn3nc(N)c(C(=O)N[C@H]4CC[C@H](C(=O)O)CC4)c3n2)cc2c1C(=O)N([C@@H](C)C1CC1)C2" , respond with its pIC50. 8.68

Given "Cc1cc(-c2ccn3nc(N)c(C(=O)N[C@@H]4CC[C@@H](O)C4)c3n2)cc2c1C(=O)N([C@@H](C)C1CC1)C2" , respond with its pIC50. 8.38

Given "Cc1cc(-c2ccn3nc(N)c(C(=O)N[C@H]4CNC(=O)C4)c3n2)cc2c1C(=O)N([C@@H](C)C1CC1)C2" , respond with its pIC50. 8.74

----------
Items are presented alongside their recorded pIC50.
- TARGET_OF_ASSAY: Phosphatidylinositol 4,5-bisphosphate 3-kinase catalytic subunit gamma isoform (Homo sapiens)
- TEST_PROTOCOL: Inhibition of PI3Kgamma (unknown origin) using PIP2 as substrate preincubated for 1 hr followed by substrate addition and measured after 60 mins in presence of ATP by ADP-glo assay
Reminder that pIC50 is minus the log10 of a molar concentration.

Some molecules with recorded pIC50:
{"columns": ["MOLECULAR_STRING", "METRIC_NAME", "READOUT_NUMBER"],
 "data": [
  ["C[C@@H](C1CC1)N1Cc2cc(-c3ccn4nc(N)c(C(=O)N[C@H]5CC[C@@](C)(O)CC5)c4n3)cc(OC(F)F)c2C1=O", "pIC50", 8.72],
  ["Cc1cc(-c2ccn3nc(N)c(C(=O)NC4CCC4)c3n2)cc2c1C(=O)N([C@@H](C)C1CC1)C2", "pIC50", 8.64]
]}

Given "C[C@@H](C1CC1)N1Cc2cc(-c3ccn4nc(N)c(C(=O)N[C@H]5CC[C@](O)(C(F)(F)F)CC5)c4n3)cc(NS(C)(=O)=O)c2C1=O" , respond with its pIC50. 8.68

Given "C[C@@H](C1CC1)N1Cc2cc(-c3ccn4nc(N)c(C(=O)N[C@@H](CO)C5CC5)c4n3)cc(OC(F)(F)F)c2C1=O" , respond with its pIC50. 8.55

Given "CNS(=O)(=O)c1cc(-c2ccn3nc(N)c(C(=O)NC4CC4)c3n2)cc2c1C(=O)N([C@@H](C)C1CC1)C2" , respond with its pIC50. 8.57

Given "C[C@@H](C1CC1)N1Cc2cc(-c3ccn4nc(N)c(C(=O)NC5CC5)c4n3)cc(NS(C)(=O)=O)c2C1=O" , respond with its pIC50. 8.57

Given "C[C@@H](C1CC1)N1Cc2cc(-c3ccn4nc(N)c(C(=O)NC5CC5)c4n3)cc(S(=O)(=O)C3CC3)c2C1=O" , respond with its pIC50. 8.77

Given "COc1cc(-c2ccn3nc(N)c(C(=O)NC4CC4)c3n2)cc2c1C(=O)N([C@@H](C)C1CC1)C2" , respond with its pIC50. 8.42

Given "C[C@@H](C1CC1)N1Cc2cc(-c3ccn4nc(N)c(C(=O)NC5CC5)c4n3)cc(Cl)c2C1=O" , respond with its pIC50. 8.62
